test.target: DRB1*1302 (Homo sapiens, UniProt P01903+P01911, A100E/A169T/K41T/L162R/M171V/P40S/Q125H/Q178H/Q39Y/Q99D/R42S/S66N/T262R/V115G/W38E/Y61H)
Sequence (P01903 26-254 limits assumed, other chains not shown): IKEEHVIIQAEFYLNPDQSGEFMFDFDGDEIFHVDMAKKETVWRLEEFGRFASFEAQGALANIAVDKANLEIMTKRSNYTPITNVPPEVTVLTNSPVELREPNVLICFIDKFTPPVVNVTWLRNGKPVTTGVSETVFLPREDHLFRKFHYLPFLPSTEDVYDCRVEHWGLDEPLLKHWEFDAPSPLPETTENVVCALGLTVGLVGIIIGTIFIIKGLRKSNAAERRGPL
measurement.description: biochemical
Type: binding
assay.conditions: read-out: IC50 nM to purified HLA DRB1*1302
property.label: IC50

1. CC(C)C[C@H](NC(=O)[C@H](C)NC(=O)CNC(=O)[C@H](CCC(N)=O)NC(=O)[C@@H](N)[C@@H](C)O)C(=O)N[C@@H](CC(C)C)C(=O)N[C@@H](CC(N)=O)C(=O)N[C@@H](CC(=O)O)C(=O)N[C@@H](CCCCN)C(=O)N[C@@H](Cc1c[nH]cn1)C(=O)N[C@@H](CO)C(=O)N[C@@H](CC(N)=O)C(=O)NCC(=O)N[C@H](C(=O)N[C@H](C(=O)N[C@@H](CCCCN)C(=O)N[C@@H](CC(=O)O)C(=O)O)C(C)C)[C@@H](C)O :: 468 nM
2. CC[C@H](C)[C@H](NC(=O)[C@H](CC(C)C)NC(=O)[C@@H](N)Cc1ccccc1)C(=O)N[C@@H](CC(C)C)C(=O)NCC(=O)N[C@@H](CCCCN)C(=O)N[C@@H](CCC(=O)O)C(=O)N[C@@H](CC(=O)O)C(=O)N[C@@H](CCCNC(=N)N)C(=O)N[C@@H](CCCNC(=N)N)C(=O)N[C@@H](Cc1ccc(O)cc1)C(=O)NCC(=O)N1CCC[C@H]1C(=O)N[C@@H](C)C(=O)N[C@@H](CC(C)C)C(=O)O :: 118 nM
3. CC[C@H](C)[C@H](NC(=O)[C@H](CC(C)C)NC(=O)[C@H](Cc1c[nH]c2ccccc12)NC(=O)[C@@H](NC(=O)[C@@H](N)C(C)C)C(C)C)C(=O)N[C@@H](CCCCN)C(=O)N[C@@H](CCCCN)C(=O)N[C@@H](CC(N)=O)C(=O)N[C@@H](CO)C(=O)N[C@H](C(=O)N[C@@H](Cc1ccc(O)cc1)C(=O)N1CCC[C@H]1C(=O)N[C@H](C(=O)N[C@H](C(=O)N[C@@H](CCCCN)C(=O)N[C@@H](CCCNC(=N)N)C(=O)O)[C@@H](C)CC)[C@@H](C)O)[C@@H](C)O :: 14 nM
4. CC[C@H](C)[C@H](NC(=O)[C@H](C)NC(=O)[C@H](CC(=O)O)NC(=O)[C@H](CC(N)=O)NC(=O)[C@@H]1CCCN1C(=O)[C@H](CCCCN)NC(=O)[C@H](CC(C)C)NC(=O)[C@@H](NC(=O)[C@@H](NC(=O)[C@@H](N)Cc1c[nH]c2ccccc12)[C@@H](C)O)[C@@H](C)CC)C(=O)N[C@@H](CC(N)=O)C(=O)N[C@@H](Cc1ccccc1)C(=O)N[C@@H](CCC(=O)O)C(=O)N[C@@H](CO)C(=O)N[C@@H](CC(N)=O)C(=O)O :: 31 nM
5. CC[C@H](C)[C@H](NC(=O)[C@H](CC(N)=O)NC(=O)[C@H](CC(N)=O)NC(=O)[C@H](CCCNC(=N)N)NC(=O)[C@H](Cc1c[nH]c2ccccc12)NC(=O)[C@H](CO)NC(=O)[C@H](CCCCN)NC(=O)[C@@H](NC(=O)[C@@H](NC(=O)[C@H](CC(=O)O)NC(=O)[C@@H](NC(=O)[C@@H](NC(=O)[C@@H](NC(=O)CNC(=O)[C@H](CC(N)=O)NC(=O)[C@@H](N)Cc1ccc(O)cc1)[C@@H](C)CC)[C@@H](C)CC)[C@@H](C)O)[C@@H](C)O)[C@@H](C)CC)C(=O)O :: 370 nM
6. CC[C@H](C)[C@H](NC(=O)[C@@H]1CCCN1C(=O)[C@H](CCCNC(=N)N)NC(=O)[C@@H](NC(=O)[C@H](CCCCN)NC(=O)[C@H](CC(C)C)NC(=O)[C@H](Cc1c[nH]c2ccccc12)NC(=O)[C@H](CCC(=O)O)NC(=O)[C@H](CCSC)NC(=O)[C@H](CC(C)C)NC(=O)[C@H](C)NC(=O)[C@@H](N)CCC(=O)O)[C@@H](C)O)C(=O)N[C@@H](CC(C)C)C(=O)N[C@@H](CO)C(=O)N1CCC[C@H]1C(=O)O :: 380 nM
7. CC[C@H](C)[C@H](N)C(=O)NCC(=O)N[C@@H](CC(N)=O)C(=O)N[C@@H](CCSC)C(=O)N[C@H](C(=O)N[C@@H](CO)C(=O)N[C@H](C(=O)N[C@@H](Cc1c[nH]c2ccccc12)C(=O)N[C@H](C(=O)N[C@@H](CO)C(=O)N[C@@H](Cc1c[nH]cn1)C(=O)N[C@@H](CO)C(=O)N[C@H](C(=O)N[C@@H](Cc1c[nH]cn1)C(=O)N[C@H](C(=O)NCC(=O)O)[C@@H](C)O)[C@@H](C)CC)C(C)C)[C@@H](C)CC)[C@@H](C)CC :: 5950 nM
8. CC[C@H](C)[C@H](NC(=O)[C@H](CCCNC(=N)N)NC(=O)[C@@H](NC(=O)[C@H](CO)NC(=O)[C@H](CC(N)=O)NC(=O)[C@H](CC(=O)O)NC(=O)[C@H](CCCCN)NC(=O)[C@H](CO)NC(=O)[C@H](Cc1ccc(O)cc1)NC(=O)[C@@H](NC(=O)[C@H](C)NC(=O)[C@@H](N)Cc1c[nH]c2ccccc12)C(C)C)[C@@H](C)CC)C(=O)NCC(=O)N[C@@H](CO)C(=O)N[C@@H](CCCCN)C(=O)O :: 36 nM
9. CC[C@H](C)[C@H](NC(=O)[C@H](CC(=O)O)NC(=O)[C@H](CCCCN)NC(=O)[C@H](CC(=O)O)NC(=O)[C@H](CCSC)NC(=O)[C@@H](NC(=O)[C@H](C)NC(=O)[C@H](CCC(N)=O)NC(=O)[C@H](CC(=O)O)NC(=O)[C@H](CCSC)NC(=O)[C@H](CCCNC(=N)N)NC(=O)[C@@H](NC(=O)[C@H](CS)NC(=O)[C@H](CC(C)C)NC(=O)[C@@H](N)CO)[C@@H](C)CC)[C@@H](C)CC)C(=O)O :: 53 nM

###

test.target: DRB1*0101 (Homo sapiens, UniProt P01903+P01911, A100R/D57E/F55L/F60I/F76Y/I96L/L162R/M171V/P40L/Q125E/R42F/V115G/Y59C)
Construct: made in house; host or cells: EBV-transformed homozygous human B cell lines, transfected fibroblasts or single-allele 721.221 transfectants
measurement.description: biochemical
Assay type: binding
assay.conditions: IC50 nM to purified HLA DRB1*0101
property.label: IC50 (nM)

1. CSCC[C@H](NC(=O)[C@H](CO)NC(=O)[C@H](CCCCN)NC(=O)[C@H](C)N)C(=O)N[C@@H](CCC(=O)O)C(=O)N[C@@H](Cc1ccc(O)cc1)C(=O)N[C@@H](CC(=O)O)C(=O)N[C@@H](C)C(=O)N[C@H](C(=O)N[C@@H](C)C(=O)N[C@H](C(=O)N[C@H](C(=O)N[C@@H](Cc1c[nH]cn1)C(=O)N[C@@H](CO)C(=O)N[C@@H](Cc1c[nH]c2ccccc12)C(=O)O)[C@@H](C)O)[C@@H](C)O)C(C)C :: 202
2. CC[C@H](C)[C@H](NC(=O)[C@@H](NC(=O)[C@H](CCSC)NC(=O)[C@H](CC(=O)O)NC(=O)[C@@H](NC(=O)[C@H](CC(C)C)NC(=O)[C@H](Cc1ccc(O)cc1)NC(=O)[C@H](CCCNC(=N)N)NC(=O)[C@H](CO)NC(=O)[C@H](C)N)[C@@H](C)O)[C@@H](C)O)C(=O)N[C@@H](CCC(=O)O)C(=O)N[C@@H](CCC(=O)O)C(=O)N[C@@H](CCSC)C(=O)N[C@@H](CO)C(=O)N[C@@H](CCCNC(=N)N)C(=O)O :: 6030
3. CC[C@H](C)[C@H](NC(=O)[C@@H]1CCCN1C(=O)[C@H](CCCNC(=N)N)NC(=O)[C@@H](NC(=O)[C@H](CCCCN)NC(=O)[C@H](CC(C)C)NC(=O)[C@H](Cc1c[nH]c2ccccc12)NC(=O)[C@H](CCC(=O)O)NC(=O)[C@H](CCSC)NC(=O)[C@H](CC(C)C)NC(=O)[C@H](C)NC(=O)[C@@H](N)CCC(=O)O)[C@@H](C)O)C(=O)N[C@@H](CC(C)C)C(=O)N[C@@H](CO)C(=O)N1CCC[C@H]1C(=O)O :: 9.5
4. CC[C@H](C)[C@H](NC(=O)[C@H](CC(C)C)NC(=O)[C@H](Cc1ccccc1)NC(=O)CNC(=O)[C@H](CCCNC(=N)N)NC(=O)[C@H](CC(C)C)NC(=O)[C@@H](NC(=O)[C@H](C)NC(=O)[C@H](CO)NC(=O)[C@@H](N)CCC(=O)O)C(C)C)C(=O)N[C@@H](CC(C)C)C(=O)NCC(=O)N[C@@H](CCCCN)C(=O)N[C@@H](CCC(=O)O)C(=O)N[C@@H](CC(=O)O)C(=O)O :: 8.4
5. CC[C@H](C)[C@H](NC(=O)[C@H](CC(C)C)NC(=O)[C@@H](NC(=O)[C@H](CCC(=O)O)NC(=O)[C@H](CC(C)C)NC(=O)[C@H](CCCNC(=N)N)NC(=O)[C@H](CC(=O)O)NC(=O)[C@H](Cc1ccccc1)NC(=O)[C@@H](NC(=O)[C@@H](NC(=O)[C@H](CO)NC(=O)[C@H](Cc1ccccc1)NC(=O)[C@@H](N)CC(N)=O)C(C)C)[C@@H](C)CC)[C@@H](C)O)C(=O)N[C@@H](CC(C)C)C(=O)N[C@@H](CC(C)C)C(=O)O :: 17
